# METHOD_SUMMARY: Inhibition of adenylosuccinate synthase at 1:1 aspartate to compound ratio
Activity calls are given as the source filed them. The calls are words filed in the database; no cut-off is given here.
Assign a class; possible classes are active, inactive

Some solved cases for reference:
compound=O=C(O)CCNO category_label=inactive
compound="CCC(C(=O)O)N(O)C=O (configuration not stated)" category_label=active
compound=O=CN(O)CC(=O)O category_label=inactive
compound="CC(CCC(=O)O)N(O)C=O (configuration not stated)" category_label=inactive
compound=O=CN(O)CCCCC(=O)O category_label=inactive

Request: Write down the call the test reported for this compound. Item: CCCC(C(=O)O)N(O)C=O (configuration not stated)
Result: active

Request: Let us now turn to O=C(O)CCCNO
Result: inactive

Request: What do we get for O=C(O)CNO ?
Result: inactive

Request: Consider next the compound CC(CCC(=O)O)NO (configuration not stated) in the same way.
Result: inactive

Request: Let us now turn to O=CN(O)CCCC(=O)O
Result: inactive

Request: Next record, please: O=CN(O)CCC(=O)O
Result: inactive

Request: Repeat for the following compound: CCC(C)C(C(=O)O)N(O)C=O (configuration not stated)
Result: active

---

# METHOD_SUMMARY: Inhibition of adenylosuccinate synthase at 5:1 aspartate to compound ratio
Active and inactive are the calls of the source. The calls are words filed in the database; no cut-off is given here.
OUTCOME_MEASURE: inhibition

compound=O=CN(O)CCCC(=O)O reported_measurement=inactive
compound="CCC(C(=O)O)N(O)C=O (stereo unspecified)" reported_measurement=inactive
compound="CC(CCC(=O)O)N(O)C=O (stereo unspecified)" reported_measurement=inactive
compound="CCCC(C(=O)O)N(O)C=O (stereo unspecified)" reported_measurement=inactive
compound=O=C(O)CNO reported_measurement=inactive
compound="CCC(C)C(C(=O)O)N(O)C=O (stereo unspecified)" reported_measurement=inactive
compound=O=CN(O)CCCCC(=O)O reported_measurement=inactive
compound=O=C(O)CCNO reported_measurement=inactive

Request: Given the entry O=CN(O)CCC(=O)O , report its measured inhibition.
Result: inactive

Request: CC(CCC(=O)O)NO (stereo unspecified) , same question.
Result: inactive

Request: Ok, now O=C(O)CCCNO
Result: inactive
